Cited source for all entries: PubChem BioAssay AID1963835

tested on: 699152-130-R-J1-PDC complex spheroid viability; experiment: Anticancer human tumor 699152-130-R-J1-PDC patient-derived pancreatic carcinoma cell line growth inhibition [POLQ]; conditions: second compound 10 µM; first compound 1 µM; hits give low values;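 further: spheroids exposed to agents for 7 days before viability reading; percent of DMSO vehicle control viability so 100% = vehicle and 0% = no viable signal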
viability, T/C values for the compounds below.
I only need the number, in %, no unit after it.

[
  {
    "COMPOUND": "O=C(Nc1ccc(O)c(NS(=O)(=O)c2ccc(F)cc2)c1)c1ccc(-c2ccccc2)cc1 + COC1C(OC(N)=O)C(O)C(Oc2ccc3c(O)c(NC(=O)c4ccc(O)c(CC=C(C)C)c4)c(=O)oc3c2C)OC1(C)C",
    "RECORDED ENDPOINT": "viability, T/C",
    "QUANTITATIVE READOUT": 95.5
  },
  {
    "COMPOUND": "CCc1cc2c(N3CCc4c(cc(Cn5ccnc5)cc4-c4cn(C)nc4C(F)(F)F)C3=O)cc(C)nc2c(OC)n1 + Nc1ccc(C#CCN(C(=O)Cc2ncc(C(F)(F)F)cc2C(F)(F)F)c2ccc(F)cc2)nn1",
    "RECORDED ENDPOINT": "viability, T/C",
    "QUANTITATIVE READOUT": 107
  },
  {
    "COMPOUND": "COc1cc(C2c3cc4c(cc3C(OC3OC5COC(C)OC5C(O)C3O)C3COC(=O)C23)OCO4)cc(OC)c1O (stereo not given) + COC1C(OC(N)=O)C(O)C(Oc2ccc3c(O)c(NC(=O)c4ccc(O)c(CC=C(C)C)c4)c(=O)oc3c2C)OC1(C)C",
    "RECORDED ENDPOINT": "viability, T/C",
    "QUANTITATIVE READOUT": 62.6
  },
  {
    "COMPOUND": "CCc1c2c(nc3ccc(O)cc13)-c1cc3c(c(=O)n1C2)COC(=O)[C@]3(O)CC + Cc1cccc(N(C)C(=O)C2C(O)CCN2c2nc(C)cc(C(F)(F)F)c2C#N)c1",
    "RECORDED ENDPOINT": "viability, T/C",
    "QUANTITATIVE READOUT": 9.43
  },
  {
    "COMPOUND": "C#Cc1c(F)ccc2cc(O)cc(-c3ncc4c(N5CC6CCC(C5)N6)nc(OCC56CCCN5CC(F)C6)nc4c3F)c12 (stereo not given) + COC1C(OC(N)=O)C(O)C(Oc2ccc3c(O)c(NC(=O)c4ccc(O)c(CC=C(C)C)c4)c(=O)oc3c2C)OC1(C)C",
    "RECORDED ENDPOINT": "viability, T/C",
    "QUANTITATIVE READOUT": 14.2
  },
  {
    "COMPOUND": "COc1cc2cc(C(=O)CCC(=O)O)sc2cc1OC + Cc1cccc(N(C)C(=O)C2C(O)CCN2c2nc(C)cc(C(F)(F)F)c2C#N)c1",
    "RECORDED ENDPOINT": "viability, T/C",
    "QUANTITATIVE READOUT": 96
  },
  {
    "COMPOUND": "COc1cc(C2c3cc4c(cc3C(OC3OC5COC(C)OC5C(O)C3O)C3COC(=O)C23)OCO4)cc(OC)c1O (stereo not given) + Cc1cccc(N(C)C(=O)C2C(O)CCN2c2nc(C)cc(C(F)(F)F)c2C#N)c1",
    "RECORDED ENDPOINT": "viability, T/C",
    "QUANTITATIVE READOUT": 75.9
  },
  {
    "COMPOUND": "COc1ccc([C@@H](O)c2cc(-c3ncnc4cc(N5CCOCC5)ccc34)c(F)cc2Cl)nn1 + COC1C(OC(N)=O)C(O)C(Oc2ccc3c(O)c(NC(=O)c4ccc(O)c(CC=C(C)C)c4)c(=O)oc3c2C)OC1(C)C",
    "RECORDED ENDPOINT": "viability, T/C",
    "QUANTITATIVE READOUT": 71.6
  }
]

Query (compound): CC1COCCN1c1cc(C2(S(C)(=N)=O)CC2)nc(-c2ccnc3[nH]ccc23)n1 (stereo not given) + Nc1ccc(C#CCN(C(=O)Cc2ncc(C(F)(F)F)cc2C(F)(F)F)c2ccc(F)cc2)nn1 ; field requested: viability, T/C
95.5

Query (compound): CCc1c2c(nc3ccc(O)cc13)-c1cc3c(c(=O)n1C2)COC(=O)[C@]3(O)CC + COC1C(OC(N)=O)C(O)C(Oc2ccc3c(O)c(NC(=O)c4ccc(O)c(CC=C(C)C)c4)c(=O)oc3c2C)OC1(C)C ; field requested: viability, T/C
7.11
